The measurements presented in this section are drawn from patent US11723894B2.

Procedure Summary: 6-OHDA in vitro model of Parkinson's Disease, cell viability (MTT)
Assay type: cell-based, human
Measurement Parameters: human, SH-SY5Y dopaminergic cells; 6-OHDA alone 30 μM 24 h, DMT experiments (graph A.1); read-out: reduction in the number of viable dopaminergic cells compared to vehicle treated cultures
Value Kind: cytotoxicity at 24 h, 30 μM (%)
Your answer is read as %, so omit the unit and give the number.

I am curious: what cytotoxicity at 24 h, 30 μM value has been reported for NCCc1cc(O)c(O)cc1O [6-OHDA, 6-hydroxy-dopamine, reference compound] ?
50

###

Procedure Summary: 6-OHDA in vitro model of Parkinson's Disease, cell viability (MTT)
Type: cell-based, human
Measurement Parameters: human, SH-SY5Y dopaminergic cells; 6-OHDA alone 30 μM 24 h, DET, DPT and 5-MeO-DMT experiments; read-out: cell viability, of the reference control value
Value Kind: viability at 24 h, 30 μM

I am curious: what viability at 24 h, 30 μM value has been reported for NCCc1cc(O)c(O)cc1O [6-OHDA, 6-hydroxy-dopamine, reference compound] ?
~60%
